- measured.on: Axl(h) (Homo sapiens, UniProt P30530)
- method.description: Kinase Profiling Assay
- Type: biochemical
- condition.details: 100 μM peptide
Reported Axl(h) % activity values for a set of sequences
# number only, unit % dropped from output

// known answers, use as guide
Look up Axl(h) % activity: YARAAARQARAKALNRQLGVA (Mammalian) [MMI-0200]
99

Look up Axl(h) % activity: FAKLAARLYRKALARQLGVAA [MMI-0300]
52

Look up Axl(h) % activity: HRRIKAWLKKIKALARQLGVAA (Mammalian) [MMI-0500]
12

Now consider the entry below.
Look up Axl(h) % activity: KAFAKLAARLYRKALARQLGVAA [MMI-0400]
41

---

- measured.on: AMPKα2(h) (Homo sapiens, UniProt P54646)
- Sequence (P54646 whole entry): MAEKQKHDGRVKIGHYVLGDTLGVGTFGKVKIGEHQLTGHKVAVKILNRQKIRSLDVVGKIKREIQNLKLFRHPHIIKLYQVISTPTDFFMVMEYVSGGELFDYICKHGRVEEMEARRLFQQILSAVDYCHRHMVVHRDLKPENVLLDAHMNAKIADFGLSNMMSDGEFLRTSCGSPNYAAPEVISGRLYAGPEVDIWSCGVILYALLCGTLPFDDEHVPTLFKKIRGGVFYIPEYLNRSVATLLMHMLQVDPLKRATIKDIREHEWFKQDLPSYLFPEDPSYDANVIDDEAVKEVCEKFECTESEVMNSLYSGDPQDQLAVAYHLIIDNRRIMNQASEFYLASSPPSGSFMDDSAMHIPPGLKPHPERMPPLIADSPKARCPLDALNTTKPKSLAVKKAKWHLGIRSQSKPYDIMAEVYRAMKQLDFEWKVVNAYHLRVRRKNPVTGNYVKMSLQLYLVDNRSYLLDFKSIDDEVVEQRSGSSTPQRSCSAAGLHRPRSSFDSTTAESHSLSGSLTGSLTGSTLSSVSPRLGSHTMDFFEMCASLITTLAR
- Sequence (Q9Y478 whole entry partner): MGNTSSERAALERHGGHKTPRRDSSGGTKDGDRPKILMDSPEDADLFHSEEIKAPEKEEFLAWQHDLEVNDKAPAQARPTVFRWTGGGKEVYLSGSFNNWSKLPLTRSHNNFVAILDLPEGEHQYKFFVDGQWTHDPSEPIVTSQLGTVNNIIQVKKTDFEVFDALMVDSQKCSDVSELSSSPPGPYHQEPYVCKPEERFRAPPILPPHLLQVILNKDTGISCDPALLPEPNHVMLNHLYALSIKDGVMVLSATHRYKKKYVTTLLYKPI
- Sequence (P54619 whole entry partner): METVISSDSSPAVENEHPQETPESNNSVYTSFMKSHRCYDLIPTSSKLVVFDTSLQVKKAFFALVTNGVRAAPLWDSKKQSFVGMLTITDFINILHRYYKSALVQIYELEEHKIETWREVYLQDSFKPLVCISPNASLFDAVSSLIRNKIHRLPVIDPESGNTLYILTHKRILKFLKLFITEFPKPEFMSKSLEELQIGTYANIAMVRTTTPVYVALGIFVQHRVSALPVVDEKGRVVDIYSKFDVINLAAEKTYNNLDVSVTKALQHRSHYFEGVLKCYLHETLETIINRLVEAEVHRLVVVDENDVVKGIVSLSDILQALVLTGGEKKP
- method.description: Kinase Profiling Assay
- Assay type: biochemical
- condition.details: 100 μM peptide
Reported AMPKα2(h) % activity values for a set of sequences
# number only, unit % dropped from output

// known answers, use as guide
Look up AMPKα2(h) % activity: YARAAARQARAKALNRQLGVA (Mammalian) [MMI-0200]
88

Look up AMPKα2(h) % activity: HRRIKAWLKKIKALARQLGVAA (Mammalian) [MMI-0500]
9

Look up AMPKα2(h) % activity: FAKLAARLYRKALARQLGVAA [MMI-0300]
54

Now consider the entry below.
Look up AMPKα2(h) % activity: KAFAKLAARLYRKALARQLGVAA [MMI-0400]
58

---

- measured.on: Rse(h) (Homo sapiens, UniProt Q06418)
- Construct: purchased Millipore (IC50 Profiler Express service)
- Sequence (Q06418 41-890): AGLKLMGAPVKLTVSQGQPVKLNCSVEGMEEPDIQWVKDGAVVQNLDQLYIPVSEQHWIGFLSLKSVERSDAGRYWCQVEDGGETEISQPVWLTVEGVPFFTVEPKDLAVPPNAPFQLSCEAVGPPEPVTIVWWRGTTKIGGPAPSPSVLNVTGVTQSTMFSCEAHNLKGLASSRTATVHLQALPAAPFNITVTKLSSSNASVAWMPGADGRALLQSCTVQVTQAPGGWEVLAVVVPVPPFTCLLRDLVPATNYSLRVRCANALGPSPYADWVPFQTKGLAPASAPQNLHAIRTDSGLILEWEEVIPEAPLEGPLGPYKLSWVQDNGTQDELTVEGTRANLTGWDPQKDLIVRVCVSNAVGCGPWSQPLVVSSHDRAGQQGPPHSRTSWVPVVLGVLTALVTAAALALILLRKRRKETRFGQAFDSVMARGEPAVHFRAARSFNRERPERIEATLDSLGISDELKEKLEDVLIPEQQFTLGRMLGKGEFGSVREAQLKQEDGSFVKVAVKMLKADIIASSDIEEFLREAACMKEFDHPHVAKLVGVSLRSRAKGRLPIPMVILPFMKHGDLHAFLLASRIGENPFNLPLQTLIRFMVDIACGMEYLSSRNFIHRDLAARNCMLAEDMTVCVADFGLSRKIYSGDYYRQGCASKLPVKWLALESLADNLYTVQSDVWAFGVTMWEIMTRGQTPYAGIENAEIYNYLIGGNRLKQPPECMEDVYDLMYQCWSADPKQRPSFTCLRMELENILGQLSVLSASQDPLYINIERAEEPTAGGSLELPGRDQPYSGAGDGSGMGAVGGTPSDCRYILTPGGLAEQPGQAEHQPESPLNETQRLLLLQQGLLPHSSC
- method.description: Kinase Profiling Assay
- Format: biochemical
- condition.details: 100 μM peptide
assay.endpoint: Rse(h) % activity (%)
# number only, unit % dropped from output

// known answers, use as guide
Lab note: need Rse(h) % activity for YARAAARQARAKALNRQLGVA (Mammalian) [MMI-0200] on Rse(h) (Homo sapiens, UniProt Q06418), anyone have it?
88

Lab note: need Rse(h) % activity for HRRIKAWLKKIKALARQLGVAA (Mammalian) [MMI-0500] on Rse(h) (Homo sapiens, UniProt Q06418), anyone have it?
63

Lab note: need Rse(h) % activity for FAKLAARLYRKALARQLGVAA [MMI-0300] on Rse(h) (Homo sapiens, UniProt Q06418), anyone have it?
88

Now consider the entry below.
Lab note: need Rse(h) % activity for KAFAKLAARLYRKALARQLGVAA [MMI-0400] on Rse(h) (Homo sapiens, UniProt Q06418), anyone have it?
89
